Test system: Caco-2 cell monolayers
Experiment: Compound permeability and efflux potential using Caco-2 cell monolayers
Format: in vitro ADME, human
Design: unit not given here
Details: 10 μM compound, pH 7.4, 120 min at 37° C.; Papp(A-B) used for absorption category
assay.readout: Caco-2 Assay Papp

Below, 2 compounds whose answers are already recorded.
- compound: "NC(=O)Nc1sc(-c2ccccc2OCCN2Cc3ccccc3C2)cc1C(N)=O"
  Caco-2 Assay Papp: 14.3
- compound: "COCCN1CCC(Oc2ccccc2-c2cc(C(N)=O)c(NC(N)=O)s2)C1 (centres unmarked) [reference compound]"
  Caco-2 Assay Papp: 1.86

[a] NC(=O)Nc1sc(-c2ccccc2OC2CCN(Cc3ccccc3)C2)cc1C(N)=O (centres unmarked)
[b] NC(=O)Nc1cc(-c2ccccc2OCCN2Cc3ccccc3C2)sc1C(N)=O
Query: Given the listed items, does a or b have the lesser reported Caco-2 Assay Papp? Returns: label corresponding to the selected item.
Reply: a
(a: 15.7, b: 23.6)

###

Assay: Compound permeability and efflux potential using Caco-2 cell monolayers
Type: in vitro ADME, human
Settings: human, Caco-2; 10 μM compound, pH 7.4, 120 min at 37° C.; efflux ratio; read-out: Caco-2 Assay Papp (B-A)/Papp(A-B) Ratio
assay.readout: efflux ratio at 120 min, 10 μM

- compound: "NC(=O)Nc1sc(-c2ccccc2OC2CCN(Cc3ccccc3)C2)cc1C(N)=O (centres unmarked) [Example 7]"
  assay.readout: "efflux ratio at 120 min, 10 μM"
  result.number: 1.07
- compound: "COCCN1CCC(Oc2ccccc2-c2cc(C(N)=O)c(NC(N)=O)s2)C1 (centres unmarked) [reference compound]"
  assay.readout: "efflux ratio at 120 min, 10 μM"
  result.number: 5.88

[1] NC(=O)Nc1sc(-c2ccccc2OCCN2Cc3ccccc3C2)cc1C(N)=O [Example 5]
[2] CN1CCC(Oc2ccccc2-c2cc(C(N)=O)c(NC(N)=O)s2)C1 (centres unmarked) [reference compound]
[3] NC(=O)Nc1cc(-c2ccccc2OCCN2Cc3ccccc3C2)sc1C(N)=O [Example 13]
Query: Please give the order of these compounds when sorted by efflux ratio at 120 min, 10 μM, largest value leading. Answer by listing the labels in the requested order.
Reply: 2, 3, 1

###

Entries with their measured IC50, system IKK-2 (Homo sapiens):
assay.readout: IC50 (µM)

- compound: "NC(=O)Nc1sc(-c2ccccc2OC2CCN(Cc3ccccc3)C2)cc1C(N)=O (stereo not shown)"
  IC50, µM: 0.04

[A] COCCN1CCC(Oc2ccccc2-c2cc(C(N)=O)c(NC(N)=O)s2)C1 (stereo not shown) [reference compound]
[B] CN1CCC(Oc2ccccc2-c2cc(C(N)=O)c(NC(N)=O)s2)C1 (stereo not shown) [reference compound]
[C] NC(=O)Nc1sc(-c2ccccc2OCCN2Cc3ccccc3C2)cc1C(N)=O
Query: Please give the order of these compounds when sorted by IC50, largest value leading. Answer by listing the labels in the requested order.
Reply: C, A, B
(C: 0.15 µM, A: 0.03 µM, B: 0.01 µM)

Measured values drawn from patent US7553868B2 for this set.
